experiment: Intrinsic clearance in rat microsomes; assay type: ADME, Microsome
Reported CLint scaled values follow for various molecules
Readout: CLint scaled (mL/min/kg)

1. COC(=O)N[C@H](C(=O)N1CCC[C@H]1c1nc2ccc([C@H]3CC[C@H](c4ccc5nc([C@@H]6CCCN6C(=O)[C@@H](NC(=O)OC)C(C)C)[nH]c5c4)N3c3ccc(N4CCCCC4)c(F)c3)cc2[nH]1)C(C)C :: 162
2. COC(=O)N[C@H](C(=O)N1CCC[C@H]1c1nc2ccc([C@H]3CC[C@H](c4ccc5nc([C@@H]6CCCN6C(=O)[C@@H](NC(=O)OC)C(C)C)[nH]c5c4)N3c3ccc(C(C)(C)C)cc3)cc2[nH]1)C(C)C :: 167
3. COC(=O)N[C@H](C(=O)N1CCC[C@H]1c1nc2cc([C@H]3CC[C@H](c4ccc5[nH]c([C@@H]6CCCN6C(=O)[C@@H](NC(=O)OC)C(C)C)nc5c4)N3c3cc(F)c(N4CCC(c5ccccc5)CC4)c(F)c3)ccc2[nH]1)C(C)C :: 53.3
4. COC(=O)N[C@H](C(=O)N1CCC[C@H]1c1nc2ccc([C@H]3CC[C@H](c4ccc5nc([C@@H]6CCCN6C(=O)[C@@H](NC(=O)OC)C(C)C)[nH]c5c4)N3c3ccc(N4CCC(c5ccccc5)CC4)cc3)cc2[nH]1)C(C)C :: 46.7

---

Tested on: Nonstructural protein 5A (Hepatitis C virus), Q5L478 [Y93C]
Sequence (whole entry): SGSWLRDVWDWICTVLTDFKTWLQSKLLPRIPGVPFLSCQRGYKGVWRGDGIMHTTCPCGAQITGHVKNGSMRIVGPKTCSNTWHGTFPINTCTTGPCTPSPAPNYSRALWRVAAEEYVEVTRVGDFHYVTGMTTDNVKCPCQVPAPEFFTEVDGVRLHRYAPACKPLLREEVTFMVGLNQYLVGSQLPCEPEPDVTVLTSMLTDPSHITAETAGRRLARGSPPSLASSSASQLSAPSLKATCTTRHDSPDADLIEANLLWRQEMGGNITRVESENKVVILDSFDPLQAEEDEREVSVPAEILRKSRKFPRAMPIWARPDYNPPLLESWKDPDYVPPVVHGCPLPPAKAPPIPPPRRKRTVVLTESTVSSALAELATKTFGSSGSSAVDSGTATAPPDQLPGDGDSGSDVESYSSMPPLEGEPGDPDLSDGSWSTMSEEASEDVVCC
Experiment: Inhibition of NS5A Y93C mutant in HuH7 cell infected HCV genotype 1a H77 assessed as decrease in viral replication after 4 days by luciferase reporter gene assay relative to wild type protein
Conditions: Hepatitis C virus (isolate H77)
Readout: fold change (FC)

1) COC(=O)N[C@H](C(=O)N1CCC[C@H]1c1nc2ccc([C@H]3CC[C@H](c4ccc5nc([C@@H]6CCCN6C(=O)[C@@H](NC(=O)OC)C(C)C)[nH]c5c4)N3c3cc(F)c(N4CCC(c5ccc(F)cc5)CC4)c(F)c3)cc2[nH]1)C(C)C :: 3
2) COC(=O)N[C@H](C(=O)N1CCC[C@H]1c1nc2ccc([C@H]3CC[C@H](c4ccc5nc([C@@H]6CCCN6C(=O)[C@@H](NC(=O)OC)C(C)C)[nH]c5c4)N3c3cc(F)c(N4CCC(c5ccccc5)CC4)c(F)c3)cc2[nH]1)C(C)C :: 6
3) COC(=O)N[C@H](C(=O)N1CCC[C@H]1c1nc2cc(F)c([C@H]3CC[C@H](c4cc5[nH]c([C@@H]6CCCN6C(=O)[C@@H](NC(=O)OC)C(C)C)nc5cc4F)N3c3cc(F)c(N4CCC(c5ccccc5)CC4)c(F)c3)cc2[nH]1)C(C)C :: 6
4) COC(=O)N[C@H](C(=O)N1CCC[C@H]1c1nc2ccc([C@H]3CC[C@H](c4ccc5nc([C@@H]6CCCN6C(=O)[C@@H](NC(=O)OC)C(C)C)[nH]c5c4)N3c3ccc(C(C)(C)C)cc3)cc2[nH]1)C(C)C :: 7
